System: angiotensin II
Experimental Protocol: Test for antagonistic activity of angiotensin II in the demedullated rat
Type: in vivo, rat (male Sprague Dawley)
Reported Conditions: IV, angiotensin II 0.75 micrograms/kg, injected 5 minutes before angiotensin II, read-out: ID50 (50% inhibitory dose of the pressure effect of angiotensin II)
Property Label: ED50 (mg/kg)

[[record]]
compound = "CCCCc1nc(SC)c(C(=O)CC(=O)OCC)n1Cc1ccc(-c2ccccc2S(=O)(=O)NC(=O)NCc2ccccc2)cc1"
tested_system = "angiotensin II"
observed_measurement = 0.08

[[record]]
compound = "CCCCc1nc(SC)c(C(=O)C[S+](C)[O-])n1Cc1ccc(-c2ccccc2S(=O)(=O)NC(=O)NCc2ccccc2)cc1 (stereo not shown)"
tested_system = "angiotensin II"
observed_measurement = 0.06

[[record]]
compound = "CCCCc1nc(SC)c(C(=O)Nc2nnn[nH]2)n1Cc1ccc(-c2ccccc2S(=O)(=O)NC(=O)NCCC)cc1"
tested_system = "angiotensin II"
observed_measurement = 0.12

[[record]]
compound = "CCCc1nc(SC)c(C(=O)C[S+]([O-])c2ccccc2)n1Cc1ccc(-c2ccccc2S(=O)(=O)NC(=O)NCc2ccccc2)cc1 (stereo not shown)"
tested_system = "angiotensin II"
observed_measurement = 0.04

